System: Staphylococcus epidermidis
Assay: Antimicrobial activity against Staphylococcus epidermidis ATCC 12228 after 24 hr by broth dilution method
Assay type: functional
Settings: ATCC 12228, 24 h
Listed next: entries and their corresponding MIC.
endpoint: MIC (µg/mL)

molecule	subject of test	reported result
COc1cccc(C2SCC(=O)N2/N=C2\C(=O)Nc3ccc(Cl)cc32)c1 (stereo not drawn)	Staphylococcus epidermidis	75
O=C1Nc2ccc(Cl)cc2/C1=N/N1C(=O)CSC1c1ccc(Cl)cc1 (stereo not drawn)	Staphylococcus epidermidis	18.8
O=C1Nc2ccc(Cl)cc2/C1=N/N1C(=O)CSC1c1ccccc1 (stereo not drawn)	Staphylococcus epidermidis	37.5

* * *

System: Proteus vulgaris
Experiment: Antimicrobial activity against Proteus vulgaris ATCC 13315 after 24 hr by broth dilution method
Type: functional
Settings: ATCC 13315, 24 h

compound	units symbol	MIC
O=C(O)c1cn(C2CC2)c2cc(N3CCNCC3)c(F)cc2c1=O	mg/L	4.7
O=C1Nc2ccc(Cl)cc2/C1=N/N1C(=O)CSC1c1ccc(O)cc1 (centres undefined)	mg/L	9.37
O=C1Nc2ccc(Cl)cc2/C1=N/N1C(=O)CSC1c1ccc(F)cc1 (centres undefined)	mg/L	18.8
O=C1Nc2ccc(Cl)cc2/C1=N/N1C(=O)CSC1c1ccc([N+](=O)[O-])cc1 (centres undefined)	mg/L	37.5
